# system: RSV prefusion F (preF), subtype B (respiratory syncytial virus, subtype B)
# assayMethodText: BLI, IgG
As shown below, each of these binders has a reported pKd value.
Please treat pKd as minus the base-10 logarithm of the molar concentration.

The examples below pair each entry with its known result.
>  <binder>
ADI-14403 (antibody, V domains shown, also called Ab 69) VH: QVQLVESGGGLGKPGGSLRLSCAASGFTFSGYYMSWIRQAPGKGLEWVSDISSGSSFTNYADSVKGRFTISRDNAKNSLYLQMNSLKAEDTAVYYCARVPPDSYGSGSYSGDSWGQGTLVTVSS VL: QSVVTQPPSVSGAPGQRVTISCTGSSSNIGAGYGVHWYQQLPGTAPKLLIYGNTNRPSGVPDRISGSKSGTSASLVITGLQAEDEADYYCQSYDSSLSGWVFGGGTKLTVL

>  <pKd>
9.16

$$$$
>  <binder>
ADI-21052 (antibody, V domains shown, also called Ab 300) VH: QVQLVQSGAEVKKPGASVKVSCKASGYTFTSYGISWVRQAPGQGLEWMGWISAYNGNTNYAQNLQGRVTMTTDTSTSTAYMELRSLRSDDTAMYYCARDAFSRVGYWYFDLWGRGTLVTVSS VL: SYELTQPPSVSVAPGQAARITCGGNNIGSKTVHWYQQKPSQAPVLVVYDDSDRPSGIPERFSGSNSGNTATLTISRVEAGDEADYYCQVWDSSGDHPVFGGGTKLTVL

>  <pKd>
9.96

$$$$

# input Which pKd reading was recorded for the binder ADI-14427 (antibody, V domains shown, also called Ab 93) VH: QVQLVQSGAEVKKPGSSVKVSCKASGGTFNSYTINWVRQAPGQGLEWMGRIITIPGATNYAQKFQGRVTFTADKSTSTAYMELSSLRSEDTAVYFCAKRGTGYYGMDVWGQGTTVTVSS VL: QSVLIQPRSVSGSPGQSVTISCTGTSSDVGGYNYVSWYQQHPGKAPKLMIYDVSERPSGVPDRFSGSKSGNTASLTISGLQAEDEADYYCCSFVGIYILVFGGGTKLTVL ?
# output 7.97

# input Dear colleague, I am looking for the recorded pKd of the following binder: ADI-21026 (antibody, V domains shown) VH: QVQLVQSGPGLVKPSQTLSLTCTVSGVSISSGGFYWSWIRQHPGKGLEWIGHIYYSRSTYYNPSLKSRVTMSLNMSKNQFSLRLSSVTAADTAVYYCARERREWLHGELDYWGQGTTVTVSS VL: DIQMTQSPDSLAVSLGEGATINCKSSQSVLDSSKNKNYLAWYQQRPGQPPKLLISWASTRESGVPDRFSGSGSGTDFTLTISSLQAEDVAVYSCQQYFSPPATFGQGTKLEIK
# output 8.40

# input What does the data say about its pKd? Entry: ADI-21051 (antibody, V domains shown) VH: QVQLVESGPGLVRPSQTLSLTCNVSGDFISRGTYYWSWIRQSAGKGLEWIGRIYTSGITDYSPSLKSRVTISVDTSKNQFFLKLASVTAADTAVYYCARGRGYYDSPWGQGTLVTVSS VL: ETTLTQSPATLSLSPGERATLSCRASESVSTFLGWYQQKPGQAPRLLIYDASNRASGVPARFSGSGSGTDFTLTISSLEPEDFAVYYCQLRNKWLTFGPGTKVDIK
# output 9.47
